- System under test: recombinant human GBA (Homo sapiens, UniProt P04062)
- Sequence (P04062 40-536): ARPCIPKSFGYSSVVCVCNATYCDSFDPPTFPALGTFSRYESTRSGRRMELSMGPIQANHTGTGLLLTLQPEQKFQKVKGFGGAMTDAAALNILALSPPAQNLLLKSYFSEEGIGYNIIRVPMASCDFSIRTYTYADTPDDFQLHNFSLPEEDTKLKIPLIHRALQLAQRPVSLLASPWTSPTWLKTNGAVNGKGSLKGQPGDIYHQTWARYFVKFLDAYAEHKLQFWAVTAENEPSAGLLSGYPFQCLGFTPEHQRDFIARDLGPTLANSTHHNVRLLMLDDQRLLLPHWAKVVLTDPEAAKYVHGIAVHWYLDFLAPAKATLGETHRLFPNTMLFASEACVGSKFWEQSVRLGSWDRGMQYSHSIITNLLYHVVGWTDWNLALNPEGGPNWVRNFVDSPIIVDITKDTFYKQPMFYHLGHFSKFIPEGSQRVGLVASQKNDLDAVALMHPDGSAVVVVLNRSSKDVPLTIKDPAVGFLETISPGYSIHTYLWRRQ
- Measurement protocol: Beta-glucocerebrosidase (GBA) inhibition assay
- Details: 4-methylumbelliferyl-beta-D-pyranoside substrate, 4-PL curve fit
Value kind: IC50

* O=[N+]([O-])c1cc(-n2cnnn2)ccc1NCCCCCCN[C@H]1C[C@](O)(CO)[C@@H](O)[C@H](O)[C@H]1O [Compound 4] | > 1000 µM
* [N-]=[N+]=Nc1ccc(NCCCCN[C@H]2C[C@](O)(CO)[C@@H](O)[C@H](O)[C@H]2O)c([N+](=O)[O-])c1 [Compound 8] | > 1000 µM
* O=[N+]([O-])c1cc(-n2nccn2)ccc1NCCCCCCN[C@H]1C[C@](O)(CO)[C@@H](O)[C@H](O)[C@H]1O [Compound 5] | 143 µM
* O=[N+]([O-])c1cc(-n2ccnn2)ccc1NCCCCCCN[C@H]1C[C@](O)(CO)[C@@H](O)[C@H](O)[C@H]1O [Compound 6] | 776 µM
* [N-]=[N+]=Nc1ccc(NCCOCCN[C@H]2C[C@](O)(CO)[C@@H](O)[C@H](O)[C@H]2O)c([N+](=O)[O-])c1 [Compound 10] | > 1000 µM
* [N-]=[N+]=Nc1ccc(NCCCCCN[C@H]2C[C@](O)(CO)[C@@H](O)[C@H](O)[C@H]2O)c([N+](=O)[O-])c1 [Compound 9] | 103 µM

###

- System under test: recombinant alpha-glucosidase II (murine full-length glucosidase II) (Mus musculus)
- Construct: secreted into the culture supernatant
- Sequence (Q8BHN3 with tags, fused parts or gaps isoform Q8BHN3-2): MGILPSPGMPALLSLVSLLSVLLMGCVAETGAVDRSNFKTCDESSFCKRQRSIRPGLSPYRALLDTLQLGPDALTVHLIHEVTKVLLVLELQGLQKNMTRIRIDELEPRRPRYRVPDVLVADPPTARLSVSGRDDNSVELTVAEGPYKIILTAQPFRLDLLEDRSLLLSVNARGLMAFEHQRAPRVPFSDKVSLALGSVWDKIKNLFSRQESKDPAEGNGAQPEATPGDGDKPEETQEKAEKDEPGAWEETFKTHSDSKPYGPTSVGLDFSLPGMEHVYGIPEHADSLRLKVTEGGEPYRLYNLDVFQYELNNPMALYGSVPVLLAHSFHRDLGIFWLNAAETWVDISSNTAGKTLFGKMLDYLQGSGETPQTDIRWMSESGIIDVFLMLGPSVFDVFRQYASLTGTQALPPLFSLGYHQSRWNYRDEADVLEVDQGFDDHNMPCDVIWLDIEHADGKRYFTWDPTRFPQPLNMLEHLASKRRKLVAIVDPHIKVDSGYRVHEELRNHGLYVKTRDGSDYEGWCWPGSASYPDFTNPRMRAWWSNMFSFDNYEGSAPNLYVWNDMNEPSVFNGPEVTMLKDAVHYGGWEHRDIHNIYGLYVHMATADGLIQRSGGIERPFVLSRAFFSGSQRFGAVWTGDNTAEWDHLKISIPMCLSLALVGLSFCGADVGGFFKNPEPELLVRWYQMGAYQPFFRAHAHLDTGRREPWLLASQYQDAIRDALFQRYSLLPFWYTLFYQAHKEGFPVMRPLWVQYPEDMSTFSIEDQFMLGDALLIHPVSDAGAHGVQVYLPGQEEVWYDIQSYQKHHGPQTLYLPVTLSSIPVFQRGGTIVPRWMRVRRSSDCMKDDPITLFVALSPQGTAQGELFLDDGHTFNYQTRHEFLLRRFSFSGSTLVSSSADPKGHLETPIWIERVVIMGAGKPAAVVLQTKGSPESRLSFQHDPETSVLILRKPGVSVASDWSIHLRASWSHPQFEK
- Sequence (O08795 with tags, fused parts or gaps partner limits assumed): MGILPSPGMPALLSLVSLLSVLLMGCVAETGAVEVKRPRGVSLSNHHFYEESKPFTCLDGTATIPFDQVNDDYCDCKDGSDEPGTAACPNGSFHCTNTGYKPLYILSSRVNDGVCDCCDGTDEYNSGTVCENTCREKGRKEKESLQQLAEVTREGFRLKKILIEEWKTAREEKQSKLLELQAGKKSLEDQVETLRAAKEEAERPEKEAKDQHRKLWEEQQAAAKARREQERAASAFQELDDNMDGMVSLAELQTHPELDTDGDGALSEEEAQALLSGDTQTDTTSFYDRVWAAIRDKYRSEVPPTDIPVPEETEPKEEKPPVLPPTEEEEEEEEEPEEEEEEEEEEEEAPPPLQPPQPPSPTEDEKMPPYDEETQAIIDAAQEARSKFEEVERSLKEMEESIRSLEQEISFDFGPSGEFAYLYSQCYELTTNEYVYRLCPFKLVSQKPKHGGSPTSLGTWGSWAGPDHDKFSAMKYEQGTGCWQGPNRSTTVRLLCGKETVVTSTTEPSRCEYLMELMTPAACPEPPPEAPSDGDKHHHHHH
- Measurement protocol: Alpha-glucosidase II assay
- Details: 4-methylumbelliferyl-alpha-D-pyranoside substrate, read-out: aGlc2 IC50
pIC50: −log10 of the molar value.
Classify by measured pIC50: Condition met if it is equal to or exceeds 8, Condition not met if it is smaller.

- N[C@H]1C[C@](O)(CO)[C@@H](O)[C@H](O)[C@H]1O: Condition not met
- O=[N+]([O-])c1cc(-c2ncccn2)ccc1NCCCCCCN[C@H]1C[C@](O)(CO)[C@@H](O)[C@H](O)[C@H]1O: Condition met
- [N-]=[N+]=Nc1ccc(NCCOCCN[C@H]2C[C@](O)(CO)[C@@H](O)[C@H](O)[C@H]2O)c([N+](=O)[O-])c1: Condition not met
- O=C(O)CCCCN[C@H]1C[C@](O)(CO)[C@@H](O)[C@H](O)[C@H]1O: Condition not met
- O=[N+]([O-])c1cc(-n2nccn2)ccc1NCCCCCCN[C@H]1C[C@](O)(CO)[C@@H](O)[C@H](O)[C@H]1O: Condition met
- [N-]=[N+]=Nc1ccc(NCCCCCCN[C@H]2C[C@](O)(CO)[C@@H](O)[C@H](O)[C@H]2O)c([N+](=O)[O-])c1: Condition not met
- [N-]=[N+]=Nc1ccc(NCCCCCN[C@H]2C[C@](O)(CO)[C@@H](O)[C@H](O)[C@H]2O)c([N+](=O)[O-])c1: Condition not met
- O=[N+]([O-])c1cc(-n2cnnn2)ccc1NCCCCCCN[C@H]1C[C@](O)(CO)[C@@H](O)[C@H](O)[C@H]1O: Condition not met
- COCCCCCCCCCN[C@H]1C[C@](O)(CO)[C@@H](O)[C@H](O)[C@H]1O: Condition not met
- [N-]=[N+]=Nc1ccc(NCCCCN[C@H]2C[C@](O)(CO)[C@@H](O)[C@H](O)[C@H]2O)c([N+](=O)[O-])c1: Condition not met

###

- System under test: rat maltase
- Measurement protocol: Intestinal alpha-glucosidase assay, maltose substrate
- Details: alpha-glucosidase from intestinal rat powder
pIC50: −log10 of the molar value.
Value kind: pIC50

• O=[N+]([O-])c1cc(-n2cnnn2)ccc1NCCCCCCN[C@H]1C[C@](O)(CO)[C@@H](O)[C@H](O)[C@H]1O = 6.29
• COCCCCCCCCCN[C@H]1C[C@](O)(CO)[C@@H](O)[C@H](O)[C@H]1O = 6.99
• [N-]=[N+]=Nc1ccc(NCCCCCCN[C@H]2C[C@](O)(CO)[C@@H](O)[C@H](O)[C@H]2O)c([N+](=O)[O-])c1 = 8.78
• N[C@H]1C[C@](O)(CO)[C@@H](O)[C@H](O)[C@H]1O = 5.89

###

Reported IC50 values for the following compounds.
- System under test: rat maltase
- Measurement protocol: Intestinal alpha-glucosidase assay, maltose substrate
- Details: alpha-glucosidase from intestinal rat powder
Value kind: IC50 (nM)

• O=[N+]([O-])c1cc(-c2ncccn2)ccc1NCCCCCCN[C@H]1C[C@](O)(CO)[C@@H](O)[C@H](O)[C@H]1O [Compound 7] = 8.14
• CCCCN[C@H]1C[C@](O)(CO)[C@@H](O)[C@H](O)[C@H]1O [Compound 1] = 1470
• [N-]=[N+]=Nc1ccc(NCCOCCN[C@H]2C[C@](O)(CO)[C@@H](O)[C@H](O)[C@H]2O)c([N+](=O)[O-])c1 [Compound 10] = 26.1
• [N-]=[N+]=Nc1ccc(NCCCCN[C@H]2C[C@](O)(CO)[C@@H](O)[C@H](O)[C@H]2O)c([N+](=O)[O-])c1 [Compound 8] = 5.3
• [N-]=[N+]=Nc1ccc(NCCCCCN[C@H]2C[C@](O)(CO)[C@@H](O)[C@H](O)[C@H]2O)c([N+](=O)[O-])c1 [Compound 9] = 4.86
• O=C(O)CCCCN[C@H]1C[C@](O)(CO)[C@@H](O)[C@H](O)[C@H]1O [Compound 11] = 7580
